# System: KM20L2 colon
# PROCEDURE TEXT: NCI tumour cell line growth inhibition, 48 h
Quick list: TGI per entry.
READOUT KIND: TGI

>>> test_value("OCC(O)COc1c(Cl)cc(Cl)cc1Cl (stereo not given)")
"> 100 µM"
>>> test_value("CCOC(OCC)C(CC)[Se]c1ccccc1 (stereo not given)")
"38.2 µM"
>>> test_value("COc1ccc(OC(C)C(=O)O)c2c1CCCC2=O (stereo not given)")
"> 100 µM"
>>> test_value("O=C(Oc1ccc2c(-c3ccccc3)c(C(=O)Nc3ccc(Cl)cc3)c(=O)oc2c1)c1ccccc1")
"> 100 µM"
>>> test_value("O=NN1C(c2ccccc2)CCCC1c1ccccc1 (stereo not given)")
"> 100 µM"
>>> test_value("CN(C)CCNC(=O)c1c2ccccc2cc2ccccc12")
"> 100 µM"
>>> test_value("C[N+](C)(C)CC(CC(=O)[O-])C1CC1 (stereo not given)")
"> 100 µM"
>>> test_value("CNc1ccc([N+](=O)[O-])c2c(NCCCN(C)C)ccnc12")
"> 100 µM"
>>> test_value("COc1ccc(C2=C(Cl)c3cc(OC)c(OC)cc3C2)cc1OC")
"> 100 µM"
>>> test_value("O=c1ccn(C2(CO)C=C(CO)C(O)C2O)c(=O)[nH]1 (stereo not given)")
"> 25.7 µM"

Sourced from PubChem BioAssay (NCI)
